Field: IC50. Provide a value for each of the molecules that follow.
Biological target: IL-17A/A (Homo sapiens, UniProt Q16552)
Construct: purchased Genscript Z03228
Sequence (Q16552 24-155): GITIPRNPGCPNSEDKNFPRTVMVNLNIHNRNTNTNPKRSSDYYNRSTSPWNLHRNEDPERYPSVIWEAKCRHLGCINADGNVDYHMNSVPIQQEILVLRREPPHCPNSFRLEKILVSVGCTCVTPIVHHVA
Test: IL-17A/A HEK-Blue Cell Assay
Format: cell-based
Conditions: HEK-Blue IL-17A reporter cell line, SEAP readout at A630, 20 hours incubation with IL-17A/A; top concentration 10 uM, 1 uM or 0.3 uM; read-out: IL-17A/A inhibition (pIC50) (converted)

CCn1nccc1C(=O)N[C@H](C(=O)Nc1ccc([C@H](C)[C@@H](NC(=O)c2cc(C#N)n[nH]2)C(=O)N2CCN(C)CC2)cc1F)C1CCCCC1 100 to 10000 nM
CCC(=O)N[C@@H](C(=O)N1CCN(C)CC1)[C@@H](C)c1ccc(NC(=O)[C@@H](NC(=O)c2cccn2CC)[C@H]2CC[C@H](C)CC2)c(F)c1 10 to 100 nM

Recorded IC50 (molecule `CCC(=O)N[C@@H](C(=O)N1CCN(C)CC1)[C@@H](C)c1ccc(NC(=O)[C@@H](NC(=O)c2csc3ccccc23)C2CCCCC2)c(F)c1` ): 10 to 100 nM
